This listing pairs compounds with measured TGI.
# System: DMS 114 small cell lung
# Assay Explanation: NCI tumour cell line growth inhibition, 48 h
Assay Readout: TGI (µM)

CC(C)c1ccccc1NC(=O)/C(Cl)=C1/Sc2ccccc2NC1=O :: 53.4
CC(=O)NNc1nc(C)c(C(=O)NNC(=O)C(=O)Nc2nc3ccc([N+](=O)[O-])cc3s2)s1 :: 82.5

====

# GI50 per record follows
# Test system: SF-295 CNS
# Assay Explanation: NCI tumour cell line growth inhibition, 48 h
Assay Readout: GI50

COc1cc([N+](=O)[O-])c(OC)cc1-c1nc2sc(Cl)cn2c1/C=N/Nc1ccccn1 :: 12.4 µM
COc1ccccc1-c1cc(=O)c2ccc(C)nc2[nH]1 :: > 100 µM
CCCCCCCCCCCCCCCCCCNC(=O)[C@H]1CSC(c2cccs2)N1 (some centres undefined) :: 5.58 µM
C=C1CC2(OC1=O)C(=O)N(CCCN1C(=O)C3(CC(=C)C(=O)O3)c3ccccc31)c1ccccc12 (centres undefined) :: 13.2 µM
COc1ccc(/C=C2/CCc3cc4ccc(OC)cc4[o+]c32)c(O)c1 :: 16.3 µM
COc1cc2c(cc1-c1c(C)noc1C)cc(C)c(=O)n2Cc1ccccn1 :: 2.3 µM
CCC(=C(c1ccc(OCCCN(C)C)cc1)c1ccc(OCCCN(C)C)cc1)c1ccc(Cl)cc1 :: 2.35 µM
NC(=O)c1cccc(Nc2nccc(Nc3cccc(F)c3)n2)c1 :: 9.82 µM
CCCCCCCCCCCC[n+]1ccccc1 (tested in a mixture with another compound) :: 0.712 µM

====

# Test system: SNB-19 CNS
# Assay Explanation: NCI tumour cell line growth inhibition, 48 h
Assay Readout: TGI

COCCOCCOCc1n(Cc2ccc3ccccc3n2)c2ccccc2[n+]1Cc1ccc2ccccc2c1 :: 1.62 µM
C=C[C@@H]1C(CO)=CCC2[C@H]1CCC1C(C)(C)C(=O)CC[C@]21C (some centres not stated) :: > 100 µM
CC1(C)N=C(C(N)=O)c2ncn(CCCO)c2N1 :: > 100 µM
CCOC(=N)n1c(=O)n(C2=NCCN2)c2ccccc21 :: > 100 µM
O=C/C(=C(/Cl)c1ccc(O)cc1)c1ccccc1 :: > 100 µM
CC(=O)[O-].CC(=O)[O-].CC(=O)[O-].CC(=O)[O-].[Mo+2].[Mo+2] :: > 100 µM
C=CCNC(=S)/N=C/c1c(O)c2ccccc2oc1=O :: > 100 µM
Cn1c2ccccc2c2c(=O)c3ccccc3[nH]c21 :: > 100 µM
CCOC(=O)/C=C(\C)c1ccc(C)cc1C :: > 100 µM
O=C(/C=C/c1ccsc1)c1ccsc1 :: 47.7 µM
COCOc1ccc(Cn2c(=O)n(C)c(=O)c3c2ncn3C)cc1[N+](=O)[O-] :: > 100 µM
O=C1C(SCCO)=C(SCCO)C(=O)c2ccccc21 :: 3.23 µM
CSc1c(C)c(C)nn1-c1ccccc1 :: > 100 µM
Cc1cc(N(CCC#N)CCC#N)ccc1/C=C1N=C(/C=C/c2ccccc2)OC(=O)N\1 :: > 100 µM
O=C(NCCCN(CCCCN(CCCNC(=O)C(F)(F)F)Cc1ccccc1)Cc1ccccc1)C(F)(F)F :: 26.6 µM
O=c1c(Cl)c(Cl)cnn1CCc1ccncc1 :: 30.7 µM
CCOC(=O)/C(=C/c1cccc(OC)c1)N(CC)CC :: > 100 µM
O=c1c2ccccc2nc2[nH][nH]c(=S)n12 :: > 100 µM
O=C1c2cccnc2-c2nc(-c3ccncc3)cc3c2c1nc1ccccc13 :: 47.4 µM
CC(=O)NNc1nc(C)c(C(=O)NNC(=O)C(=O)Nc2nc3ccc([N+](=O)[O-])cc3s2)s1 :: > 100 µM
CN(C)CCCN1C(=S)N(CCCN(C)C)c2c3cc(O)ccc3nc3c([N+](=O)[O-])ccc1c23 :: 13.9 µM
Cc1ccc(S(=O)(=O)N/N=C(\c2nc3ccc([N+](=O)[O-])cc3[nH]c2=O)C(O)c2ccccc2Cl)cc1 (configuration not stated) :: > 100 µM

These measurements were taken from PubChem BioAssay (NCI).
